Listing: self-aminoacylation of selected sequences
system: biotinyl-Met-oxazolone; assay: self-aminoacylation, catalytic enhancement (BMO) (fold over background); higher = more active; k-Seq, kA / k0A0; sequences stand for … in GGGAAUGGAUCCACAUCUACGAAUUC…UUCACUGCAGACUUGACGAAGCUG
This sample holds only a part of the variants without activity.
readout_kind: self-aminoacylation

>>> reported("AUUACCCUGCUCAUCGUGUGA [Fam2.1 aminoacylation ribozyme variant]")
2.7
>>> reported("CCACGCUUCAAGCAAUCAGUC [Fam1B.1 aminoacylation ribozyme variant]")
0.811
>>> reported("AUCCUUCAAACAAUCGGUCUG [Fam1A.1 aminoacylation ribozyme variant]")
0.822
>>> reported("AUUCCCCUCGUCAUCGAGUGA [Fam2.1 aminoacylation ribozyme variant]")
4.49
>>> reported("AUUCUCCAAGGUCAUCGGGUG [Fam2.2 aminoacylation ribozyme variant]")
11.8
>>> reported("UUUCACCUAGGUCAUCGGAUG [Fam2.2 aminoacylation ribozyme variant]")
0.898
>>> reported("CUUAACCUAGGUCAUCGGGUG [Fam2.2 aminoacylation ribozyme variant]")
4.25
>>> reported("CUAAUUAAAACAAUCGGUCUG [Fam1A.1 aminoacylation ribozyme variant]")
0.827
>>> reported("AUUGCCCUGGUCAUCGAGUGC [Fam2.1 aminoacylation ribozyme variant]")
4.79
